studySystem: T1, biotinylated goat anti-human kappa light chain
T1 construct: Positive control of the ELISA
assayProcedure: ELISA; positive control; further: test concentration or dose not given here
quantityKind: optical density (OD)
Unit OD implied. Number only.

Worked cases, optical density given:
binder="370_H03 (antibody, V domains shown, VH/VL only) VH: EVQLLESGGGLVQPGGSLRLSCAASGFTFDSYSMNWVRQAPGKGLEWVAGINYNSGYKGYADSVKGRFTISRDNSKNTLYLQMNSLRAEDTAVYYCARSATWHDTHLDYWGQGTLVTVSS VL: DIQMTQSPSSLSASVGDRVTITCRASQSILTYLNWYQQKPGKAPKLLIYAATSLASGVPSRFSGSGSGTDFTLTISSLQPEDFATYYCQQSYDTPLTFGGGTKVEIK" unitspec=OD numericresult=3.56
binder="371_G03 (antibody, V domains shown, VH/VL only) VH: EVQLLESGGGLVQPGGSLRLSCAASGFTFSSYGMNWVRQAPGKGLEWVANINYNGGYKGYADSVKGRFTISRDNSKNTLYLQMNSLRAEDTAVYYCARSATWHDTHLDYWGQGTLVTVSS VL: DIQMTQSPSSLSASVGDRVTITCRASQSIVTYVNWYQQKPGKAPKLVIYAATSLASGVPSRFSGSGSGTDFTLTISSLQPEDFATYYCQQSYNLPLTFGGGTKVEIK" unitspec=OD numericresult=3.59
binder="370_A09 (antibody, V domains shown, VH/VL only) VH: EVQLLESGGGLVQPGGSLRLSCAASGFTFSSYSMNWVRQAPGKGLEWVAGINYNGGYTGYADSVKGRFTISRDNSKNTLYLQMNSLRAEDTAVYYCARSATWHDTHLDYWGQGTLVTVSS VL: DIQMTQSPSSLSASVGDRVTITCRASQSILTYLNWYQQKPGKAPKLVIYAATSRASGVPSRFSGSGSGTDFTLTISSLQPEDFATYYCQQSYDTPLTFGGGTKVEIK" unitspec=OD numericresult=3.58

Fill in reported optical density for this entry: 365_F07 (antibody, V domains shown, VH/VL only) VH: EVQLLESGGGLVQPGGSLRLSCAASGFTFSSYSMNWVRQAPGKGLEWVSNINYNGGYKSYADSVKGRFTISRDNSKNTLYLQMNSLRAEDTAVYYCARSATWHDTALDYWGQGTLVTVSS VL: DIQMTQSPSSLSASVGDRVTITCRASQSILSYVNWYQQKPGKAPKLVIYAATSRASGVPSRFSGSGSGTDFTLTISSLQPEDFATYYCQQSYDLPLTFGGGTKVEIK
3.39

Fill in reported optical density for this entry: 373_E06 (antibody, V domains shown, VH/VL only) VH: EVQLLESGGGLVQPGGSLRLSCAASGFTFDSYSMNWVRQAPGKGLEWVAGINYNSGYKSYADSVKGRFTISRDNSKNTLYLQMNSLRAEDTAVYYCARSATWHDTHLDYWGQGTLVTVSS VL: DIQMTQSPSSLSASVGDRVTITCRASQSILRYLNWYQQKPGKAPKLLIYAATSLHSGVPSRFSGSGSGTDFTLTISSLQPEDFATYYCQQSYDNPLTFGGGTKVEIK
3.22
